# Tested on: RPMI-8226
# PROTOCOL_TEXT: NCI 60 cell line panel screen (SRB)
# Type: cell-based, human
# CONDITION_LABEL: RPMI-8226 (Leukemia); LC50: PG=−50
PARAMETER: Log10LC50

Q: State its Log10LC50: C[C@@H]1CC[C@H]2[C@@H](C)C(CC(O)(COC(=O)CCC(=O)O)CC3OC4O[C@]5(C)CC[C@H]6[C@H](C)CC[C@@H]([C@H]3C)C46OO5)OC3O[C@]4(C)CCC1C32OO4 (stereo partly shown) [Compound 9, tertiary alcohol primary succinate ester]
Result: >−4.30 log10M

Q: Indicate the recorded Log10LC50 value for this compound: CC1CCC2C(C)C(CC(COC(=O)CCC(=O)O)CC3OC4OC5(C)CCC6C(C)CCC(C3C)C46OO5)OC3OC4(C)CCC1C32OO4 (stereo not shown) [Compound 8a, bis-trioxane primary succinate monoester]
Result: >−4.30 log10M

Q: Determine its reported Log10LC50: CC(=O)O[C@H]1C(=O)[C@@]2(C)[C@H]([C@H](OC(=O)c3ccccc3)[C@]3(O)C[C@H](OC(=O)[C@H](O)[C@@H](NC(=O)c4ccccc4)c4ccccc4)C(C)=C1C3(C)C)[C@]1(OC(C)=O)CO[C@@H]1C[C@@H]2O [Paclitaxel, paclitaxel, reference compound]
Result: >−4.00 log10M

Q: Report measured Log10LC50; entry is CC1CCC2C(C)C(CC(CO)CC3OC4OC5(C)CCC6C(C)CCC(C3C)C46OO5)OC3OC4(C)CCC1C32OO4 (stereo not shown)
Result: >−4.00 log10M

====

Field: Log10LC50. Provide a value for each of the compounds that follow.
# System: 786-0
# PROTOCOL_TEXT: NCI 60 cell line panel screen (SRB)
# Format: cell-based, human
# CONDITION_LABEL: 786-0 (Renal Cancer); LC50: PG=−50

Q: Report Log10LC50 for CC(=O)O[C@H]1C(=O)[C@@]2(C)[C@H]([C@H](OC(=O)c3ccccc3)[C@]3(O)C[C@H](OC(=O)[C@H](O)[C@@H](NC(=O)c4ccccc4)c4ccccc4)C(C)=C1C3(C)C)[C@]1(OC(C)=O)CO[C@@H]1C[C@@H]2O [Paclitaxel, paclitaxel, reference compound]
Result: >−4.00 log10M

Q: Provide measured Log10LC50 value, entry: CC1CCC2C(C)C(CC(COC(=O)CCC(=O)O)CC3OC4OC5(C)CCC6C(C)CCC(C3C)C46OO5)OC3OC4(C)CCC1C32OO4 (stereo not shown) [Compound 8a, bis-trioxane primary succinate monoester]
Result: >−4.30 log10M

Q: Let me know recorded Log10LC50 for CC1CCC2C(C)C(CC(O)(CO)CC3OC4OC5(C)CCC6C(C)CCC(C3C)C46OO5)OC3OC4(C)CCC1C32OO4 (stereo not shown) , thanks.
Result: >−4.00 log10M

Q: For the compound CC1CCC2C(C)C(CC(O)(CC3OC4OC5(C)CCC6C(C)CCC(C3C)C46OO5)CS(=O)(=O)c3ccc(C(=O)O)cc3)OC3OC4(C)CCC1C32OO4 (stereo not shown) [Compound 10c] , give its measured Log10LC50 value.
Result: −4.64 log10M

====

# Test system: OVCAR-5
# PROTOCOL_TEXT: NCI 60 cell line panel screen (SRB)
# Format: cell-based, human
# CONDITION_LABEL: Ovarian Cancer, OVCAR-5
Please go through the items and note down their Log10GI50.

Q: Please report the measured Log10GI50 for CC1CCC2C(C)C(CC(CO)CC3OC4OC5(C)CCC6C(C)CCC(C3C)C46OO5)OC3OC4(C)CCC1C32OO4 (stereo not drawn) tested on OVCAR-5.
Result: −7.79

Q: Report Log10GI50 on OVCAR-5 for this entry: C[C@@H]1CC[C@H]2[C@@H](C)C(CC(O)(COC(=O)CCC(=O)O)CC3OC4O[C@]5(C)CC[C@H]6[C@H](C)CC[C@@H]([C@H]3C)C46OO5)OC3O[C@]4(C)CCC1C32OO4 (stereo partly drawn) [Compound 9, tertiary alcohol primary succinate ester]
Result: <−8.30

Q: GET Log10GI50 | system: OVCAR-5 | item: CC1CCC2C(C)C(CC(COC(=O)CCC(=O)O)CC3OC4OC5(C)CCC6C(C)CCC(C3C)C46OO5)OC3OC4(C)CCC1C32OO4 (stereo not drawn) [Compound 8a, bis-trioxane primary succinate monoester]
Result: <−8.30

====

# Tested on: OVCAR-4
# PROTOCOL_TEXT: NCI 60 cell line panel screen (SRB)
# Assay type: cell-based, human
# CONDITION_LABEL: Ovarian Cancer, OVCAR-4
PARAMETER: Log10GI50
Lab note: jot the number down without any unit.

Q: Supply recorded Log10GI50 for CC(=O)O[C@H]1C(=O)[C@@]2(C)[C@H]([C@H](OC(=O)c3ccccc3)[C@]3(O)C[C@H](OC(=O)[C@H](O)[C@@H](NC(=O)c4ccccc4)c4ccccc4)C(C)=C1C3(C)C)[C@]1(OC(C)=O)CO[C@@H]1C[C@@H]2O [Paclitaxel, paclitaxel, reference compound] here.
Result: −5.00

Q: Give the reported value of Log10GI50 for this record: CC1CCC2C(C)C(CC(CO)CC3OC4OC5(C)CCC6C(C)CCC(C3C)C46OO5)OC3OC4(C)CCC1C32OO4 (stereo not shown) [Compound 4, bis-trioxane primary alcohol]
Result: −5.44

Q: Entry CC1CCC2C(C)C(CC(O)(CO)CC3OC4OC5(C)CCC6C(C)CCC(C3C)C46OO5)OC3OC4(C)CCC1C32OO4 (stereo not shown) [Compound 5, bis-trioxane vicinal diol] needs its Log10GI50 filled in; supply it.
Result: −4.99

====

Please respond with reported Log10LC50 for every item in the list.
# Test system: EKVX
# PROTOCOL_TEXT: NCI 60 cell line panel screen (SRB)
# Format: cell-based, human
# CONDITION_LABEL: EKVX (Non-Small Cell Lung Cancer); LC50: PG=−50

Q: Give the reported Log10LC50 for this compound. CC1CCC2C(C)C(CC(COC(=O)c3cc[n+]([O-])cc3)CC3OC4OC5(C)CCC6C(C)CCC(C3C)C46OO5)OC3OC4(C)CCC1C32OO4 (stereo not drawn)
Result: −4.59 log10M

Q: Using the record for CC1CCC2C(C)C(CC(O)(CC3OC4OC5(C)CCC6C(C)CCC(C3C)C46OO5)CS(=O)(=O)c3ccc(C(=O)O)cc3)OC3OC4(C)CCC1C32OO4 (stereo not drawn) [Compound 10c] , state its measured Log10LC50.
Result: >−4.30 log10M

Q: Please supply the value of reported Log10LC50 for the item `C[C@@H]1CC[C@H]2[C@@H](C)C(=O)O[C@@H]3O[C@]4(C)CC[C@@H]1[C@]32OO4`
Result: >−4.00 log10M

====

# Test system: SNB-75
# PROTOCOL_TEXT: NCI 60 cell line panel screen (SRB)
# Format: cell-based, human
# CONDITION_LABEL: SNB-75 (CNS Cancer); TGI: PG=0
For each of the molecules below, state its Log10TGI50.

Q: # return recorded Log10TGI50 for input CC1CCC2C(C)C(CC(O)(CO)CC3OC4OC5(C)CCC6C(C)CCC(C3C)C46OO5)OC3OC4(C)CCC1C32OO4 (stereo not shown)
Result: −4.04 log10M

Q: Look up Log10TGI50 of CC1CCC2C(C)C(CC(COC(=O)CCC(=O)O)CC3OC4OC5(C)CCC6C(C)CCC(C3C)C46OO5)OC3OC4(C)CCC1C32OO4 (stereo not shown) [Compound 8a, bis-trioxane primary succinate monoester] and report it.
Result: >−4.30 log10M

Q: Provide one value: measured Log10TGI50 of C[C@@H]1CC[C@H]2[C@@H](C)C(CC(O)(CC3OC4O[C@]5(C)CC[C@H]6[C@H](C)CC[C@@H]([C@H]3C)C46OO5)c3ccc(C(=O)O)cc3)OC3O[C@]4(C)CCC1C32OO4 (stereo partly shown) [Compound 11b]
Result: >−4.30 log10M

Q: Please give measured Log10TGI50 of the following entry: CC1CCC2C(C)C(CC(O)(CC3OC4OC5(C)CCC6C(C)CCC(C3C)C46OO5)CS(=O)(=O)c3ccc(C(=O)O)cc3)OC3OC4(C)CCC1C32OO4 (stereo not shown) [Compound 10c]
Result: −4.80 log10M

Q: Using known records, supply Log10TGI50 for C[C@@H]1CC[C@H]2[C@@H](C)C(CC(O)(COC(=O)CCC(=O)O)CC3OC4O[C@]5(C)CC[C@H]6[C@H](C)CC[C@@H]([C@H]3C)C46OO5)OC3O[C@]4(C)CCC1C32OO4 (stereo partly shown) [Compound 9, tertiary alcohol primary succinate ester]
Result: >−4.30 log10M

Q: For the molecule `C[C@@H]1CC[C@H]2[C@@H](C)C(=O)O[C@@H]3O[C@]4(C)CC[C@@H]1[C@]32OO4` , give its reported Log10TGI50.
Result: >−4.00 log10M

Q: Given the molecule CC1CCC2C(C)C(CC(CO)CC3OC4OC5(C)CCC6C(C)CCC(C3C)C46OO5)OC3OC4(C)CCC1C32OO4 (stereo not shown) , write its reported Log10TGI50.
Result: −4.55 log10M
